# experimental target: Sodium channel protein type 1 subunit alpha (Homo sapiens)
# measurement protocol: Activation of human Nav1.1 expressed in HEK293 cells assessed as ratio of compound activation AUC to baseline activation AUC at 0.12 uM at -120 mV holding potential by Qpatch assay
# Assay type: cell-based
Residues, ends and D or L forms follow the SMILES beside them.
Ratio AUC values by entry
Give a plain numeric answer without units written out.

CC[C@H](C)[C@H](NC(=O)[C@H](CCCNC(=N)N)NC(=O)[C@@H](NC(=O)[C@@H](N)CCCNC(=N)N)[C@@H](C)CC)C(=O)NCC(=O)N[C@@H](CC(C)C)C(=O)N[C@@H](Cc1ccccc1)C(=O)N[C@@H](CC(=O)O)C(=O)N[C@@H](CCC(N)=O)C(=O)N[C@@H](CC(C)C)C(=O)N[C@@H](CO)C(=O)N[C@@H](CCCNC(=N)N)C(=O)N[C@@H](CC(C)C)C(N)=O (H-RIRIGLFDQLSRL-NH2)    1

Now look at this entry.
Query for Sodium channel protein type 1 subunit alpha (Homo sapiens): what Ratio AUC does the record show for CC[C@H](C)[C@H](NC(=O)[C@H](CCCCN)NC(=O)[C@H](CC(C)C)NC(=O)[C@@H](N)CCCNC(=N)N)C(=O)NCC(=O)N[C@@H](CC(C)C)C(=O)N[C@@H](Cc1ccccc1)C(=O)N[C@@H](CC(=O)O)C(=O)N[C@@H](CCC(N)=O)C(=O)N[C@@H](CC(C)C)C(=O)N[C@@H](CO)C(=O)N[C@@H](CCCNC(=N)N)C(=O)N[C@@H](CC(C)C)C(N)=O (H-RLKIGLFDQLSRL-NH2) ? 1

====

# experimental target: Sodium channel protein type 1 subunit alpha (Homo sapiens)
# measurement protocol: Activation of human Nav1.1 expressed in HEK293 cells assessed as ratio of compound activation AUC to baseline activation AUC at 0.12 uM at -120 mV holding potential by Qpatch assay
# Assay type: cell-based
Non-standard residues stand in square brackets, D forms with d. Residues, ends and D or L forms follow the SMILES beside them. 2Nal = N[C@@H](Cc1ccc2ccccc2c1)C(=O)O
Catalogue of Ratio AUC readings, one per entry.
In your answer, state the number alone without any accompanying words.

CC[C@H](C)[C@H](NC(=O)[C@H](CCCNC(=N)N)NC(=O)[C@@H](NC(=O)[C@@H](N)CCCNC(=N)N)[C@@H](C)CC)C(=O)NCC(=O)N[C@@H](CC(C)C)C(=O)N[C@@H](Cc1ccccc1)C(=O)N[C@@H](CC(=O)O)C(=O)N[C@@H](CCC(N)=O)C(=O)N[C@@H](CC(C)C)C(=O)N[C@@H](Cc1c[nH]c2ccccc12)C(=O)N[C@@H](CCCNC(=N)N)C(=O)N[C@@H](CC(C)C)C(N)=O (H-RIRIGLFDQLWRL-NH2)    1.2
CC[C@H](C)[C@H](NC(=O)[C@H](CCCNC(=N)N)NC(=O)[C@@H](NC(=O)[C@@H](N)CCCNC(=N)N)[C@@H](C)CC)C(=O)NCC(=O)N[C@@H](CC(C)C)C(=O)N[C@@H](Cc1ccccc1)C(=O)N[C@@H](CC(=O)O)C(=O)N[C@@H](CCC(N)=O)C(=O)N[C@@H](CC(C)C)C(=O)N[C@@H](Cc1ccccc1)C(=O)N[C@@H](CCCNC(=N)N)C(=O)N[C@@H](CC(C)C)C(N)=O (H-RIRIGLFDQLFRL-NH2)    1

What does the record list as Ratio AUC for CC[C@H](C)[C@H](NC(=O)[C@H](CC(=O)O)NC(=O)[C@@H](NC(=O)[C@@H](N)CCCNC(=N)N)[C@@H](C)CC)C(=O)NCC(=O)N[C@@H](CC(C)C)C(=O)N[C@@H](Cc1ccccc1)C(=O)N[C@@H](CCCCN)C(=O)N[C@@H](CCC(N)=O)C(=O)N[C@@H](CC(C)C)C(=O)N[C@@H](CO)C(=O)N[C@@H](CCCNC(=N)N)C(=O)N[C@@H](CC(C)C)C(N)=O (H-RIDIGLFKQLSRL-NH2) ? 1.1

Request the reported Ratio AUC associated with CC[C@H](C)[C@H](NC(=O)[C@H](CCCNC(=N)N)NC(=O)[C@@H](NC(=O)[C@@H](N)CCCNC(=N)N)[C@@H](C)CC)C(=O)NCC(=O)N[C@@H](CC(C)C)C(=O)N[C@@H](Cc1ccc2ccccc2c1)C(=O)N[C@@H](CC(=O)O)C(=O)N[C@@H](CCC(N)=O)C(=O)N[C@@H](CC(C)C)C(=O)N[C@@H](CC(C)C)C(=O)N[C@@H](CCCNC(=N)N)C(=O)N[C@@H](CC(C)C)C(N)=O (H-RIRIGL[2Nal]DQLLRL-NH2) 1.4

Recorded Ratio AUC of CC[C@H](C)[C@H](NC(=O)[C@H](CCCNC(=N)N)NC(=O)[C@@H](NC(=O)[C@@H](N)CCCNC(=N)N)[C@@H](C)CC)C(=O)NCC(=O)N[C@@H](CC(C)C)C(=O)N[C@@H](Cc1ccccc1)C(=O)N[C@@H](CC(=O)O)C(=O)N[C@@H](CCC(N)=O)C(=O)N[C@@H](CC(C)C)C(=O)N[C@@H](CC(C)C)C(=O)N[C@@H](CCCNC(=N)N)C(=O)N[C@@H](CC(C)C)C(N)=O (H-RIRIGLFDQLLRL-NH2) , please. 1.1
